Target: hemoglobin (Homo sapiens)
Construct: from tissue; host or cells: whole blood (red blood cells)
Sequence (P69905 2-142 limits assumed): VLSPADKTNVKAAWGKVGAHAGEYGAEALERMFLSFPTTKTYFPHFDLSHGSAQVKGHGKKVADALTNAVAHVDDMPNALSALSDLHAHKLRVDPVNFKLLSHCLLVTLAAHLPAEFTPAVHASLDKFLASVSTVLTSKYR
Sequence (P68871 2-147 partner limits assumed): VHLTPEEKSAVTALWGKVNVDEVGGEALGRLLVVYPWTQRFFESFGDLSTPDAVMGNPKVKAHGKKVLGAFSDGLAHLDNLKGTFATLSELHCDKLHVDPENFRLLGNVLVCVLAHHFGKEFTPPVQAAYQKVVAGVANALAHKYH
Assay: Whole blood assay: oxygen equilibrium curves (Hemox Analyzer), change in p50
Type: cell-based
Conditions: whole blood 20% Hct (1 mM Hb), compound 1 mM, equimolar to hemoglobin, 1 h at 37° C.
Classify: y when Delta-p50 (%) is strictly less than 40%; n when Delta-p50 (%) is not.

Look over these answered cases.
[[record]]
compound = "Cc1ccc(-c2ncccc2COc2cccc(O)c2C=O)nc1C=O"
tested_on = "hemoglobin (Homo sapiens)"
answer_label = "y"

[[record]]
compound = "O=Cc1ccc(F)cc1C(=O)N1CCCC[C@H]1COc1cccc(O)c1C=O"
tested_on = "hemoglobin (Homo sapiens)"
answer_label = "n"

[[record]]
compound = "O=Cc1c(O)cccc1OC[C@@H]1COCCN1C(=O)c1cccc(O)c1C=O"
tested_on = "hemoglobin (Homo sapiens)"
answer_label = "y"

[[record]]
compound = "O=Cc1ncc(-c2ncccc2COc2cccc(O)c2C=O)o1"
tested_on = "hemoglobin (Homo sapiens)"
answer_label = "y"


## Input In the record for O=Cc1nc(-c2ncccc2COc2cccc(O)c2C=O)cs1 , is Delta-p50 (%) less than 40%?
## Output y

## Input Check O=Cc1cccc(-c2cnccc2COc2cccc(O)c2C=O)n1 too.
## Output y

## Input Check O=Cc1cc(-c2ncccc2COc2cccc(O)c2C=O)co1 too.
## Output y

## Input Check O=Cc1ccccc1C(=O)N1CCC[C@H](COc2cccc(O)c2C=O)C1 too.
## Output n

## Input Check COc1ccc(C=O)cc1-c1ncccc1COc1cccc(O)c1C=O too.
## Output y

## Input Check O=Cc1ccccc1C(=O)N1CCCC[C@@H]1COc1cccc(O)c1C=O too.
## Output n

## Input Check Cc1cccc(C(=O)N2CCCC[C@H]2COc2cccc(O)c2C=O)c1C=O too.
## Output n

## Input Check CCOc1ccc(-c2ncccc2COc2cccc(O)c2C=O)nc1C=O too.
## Output n
